- System: NO production in LPS-stimulated RAW 264.7 murine macrophages (iNOS)
- test_description: Griess assay, NO production (iNOS) in LPS-stimulated RAW 264.7 macrophages
- Format: cell-based
- conditions_used: LPS 1 µg/mL, RAW 264.7, 24 h; read-out: IC50 (µM) NO Inhibition
measurement_label: IC50 (µM)
Answers are plain numbers, in µM.

Each of the following entries comes with a recorded value; kindly state IC50 for each.
1. C[n+]1c(Cl)c(Cl)n(CC(O)c2ccccc2)[c]1[Au-][O]C(=O)[C@@H]1CCCN1C(=O)OC(C)(C)C (some centres unmarked)
2. C[n+]1[c]([Au-][O]C(=O)[C@@H]2CCCN2C(=O)OC(C)(C)C)n(CC(O)c2ccccc2)c2ccccc21 (some centres unmarked)

Result:
[32.3, 13.1]

Each of the following entries comes with a recorded value; kindly state IC50 for each.
1. C[n+]1c(-c2ccccc2)c(-c2ccccc2)n(CC(O)c2ccccc2)[c]1[Ag-][O]C(=O)[C@@H]1CCCN1C(=O)OC(C)(C)C (some centres unmarked)
2. C[n+]1c(-c2ccccc2)c(-c2ccccc2)n(CC(O)c2ccccc2)[c]1[Au-][O]C(=O)[C@@H]1CCCN1C(=O)OC(C)(C)C (some centres unmarked)

Result:
[30.9, 4.88]

Taken from paper PMC12249917.
